Please respond with reported MA - drop of optical density for every item in the list.
Tested on: thrombocytes
Assay Summary: ADP-induced aggregation of thrombocytes after intravenous administration (in vivo)
Parameters: species or system rabbit
Measurement Parameters: 15.0 mg/kg intravenously, after 60 minutes; control 50.1 ± 1.7
Include the unit after the number when you answer.

Inquiry: Answer with reported MA - drop of optical density of Nc1cnc2c(=O)n([C@@H]3O[C@H](CO)[C@@H](O)[C@H]3O)[nH]c(=O)c2n1.[Na]
Reply text: 46.7 ± 1.5 %

Inquiry: Answer with reported MA - drop of optical density of Nc1ccnc2c(=O)n([C@@H]3O[C@H](CO)[C@@H](O)[C@H]3O)[nH]c(=O)c12
Reply text: 46.9 ± 1.7 %

Inquiry: Answer with reported MA - drop of optical density of Nc1cccc2c(=O)[nH][nH]c(=O)c12.[Na]
Reply text: 45.6 ± 1.5 %

Inquiry: Answer with reported MA - drop of optical density of O=c1[nH][nH]c(=O)c2c(Br)ncnc12.[K]
Reply text: 45.9 ± 1.6%

###

Assay Summary: Chronic toxicity of suppositories: indexes of peripheral blood
Assay type: in vivo, rats
Measurement Parameters: male rats, suppositories rectally, 500 mg/kg, 2 months; control 19.1 ± 1.9
Please respond with reported Leukocyte for every item in the list.
# value in thousand/mm^3; strip the unit string

Inquiry: Answer with reported Leukocyte of O=c1[nH]n([C@@H]2O[C@H](CO)[C@@H](O)[C@H]2O)c(=O)c2nc(O)cnc12.[Na].[Na]
Reply text: 20.1

Inquiry: Answer with reported Leukocyte of Nc1cccc2c(=O)[nH][nH]c(=O)c12.[Na]
Reply text: 21.1

Inquiry: Answer with reported Leukocyte of O=C([O-])c1ncnc2c(=O)n([C@@H]3O[C@H](CO)[C@@H](O)[C@H]3O)[nH]c(=O)c12.[Na+]
Reply text: 22.1

Inquiry: Answer with reported Leukocyte of O=c1[nH][nH]c(=O)c2c(Br)ncnc12.[K]
Reply text: 18.7

###

Assay Summary: Chronic toxicity of suppositories: indexes of peripheral blood
Assay type: in vivo, rats
Measurement Parameters: male rats, suppositories rectally, 50 mg/kg, 2 months; control 2.4 ± 0.4
Please respond with reported Stab neutrophil for every item in the list.
# value in %; strip the unit string

Inquiry: Answer with reported Stab neutrophil of O=c1[nH][nH]c(=O)c2c(Br)ncnc12.[K]
Reply text: 1.9

Inquiry: Answer with reported Stab neutrophil of O=c1[nH]n([C@@H]2O[C@H](CO)[C@@H](O)[C@H]2O)c(=O)c2nc(O)cnc12.[Na].[Na]
Reply text: 1.6

Inquiry: Answer with reported Stab neutrophil of Nc1cccc2c(=O)[nH][nH]c(=O)c12.[Na]
Reply text: 0.8

Inquiry: Answer with reported Stab neutrophil of O=C([O-])c1ncnc2c(=O)n([C@@H]3O[C@H](CO)[C@@H](O)[C@H]3O)[nH]c(=O)c12.[Na+]
Reply text: 1.8

###

System: plasma hemostasis
Assay Summary: Prothrombin time after intravenous administration
Format: in vivo, rabbit
Measurement Parameters: 30.0 mg/kg intravenously, after 60 minutes; control 11.2 ± 0.1
Excerpt: […]
Please respond with reported prothrombin time, T for every item in the list.
# value in s; strip the unit string

Inquiry: Recall the reported prothrombin time, T of Nc1ccnc2c(=O)n([C@@H]3O[C@H](CO)[C@@H](O)[C@H]3O)[nH]c(=O)c12 [Compound 2] on plasma hemostasis and write it down.
Reply text: 11.3

Inquiry: Recall the reported prothrombin time, T of Nc1cnc2c(=O)n([C@@H]3O[C@H](CO)[C@@H](O)[C@H]3O)[nH]c(=O)c2n1.[Na] [Compound 21] on plasma hemostasis and write it down.
Reply text: 11.3

Inquiry: Recall the reported prothrombin time, T of Nc1cccc2c(=O)[nH][nH]c(=O)c12.[Na] [Compound 15] on plasma hemostasis and write it down.
Reply text: 11.4

Inquiry: Recall the reported prothrombin time, T of O=c1[nH][nH]c(=O)c2c(Br)ncnc12.[K] [Compound 37] on plasma hemostasis and write it down.
Reply text: 11.4

###

Please respond with reported Hemoglobin for every item in the list.
Assay Summary: Chronic toxicity of suppositories: indexes of peripheral blood
Assay type: in vivo, rats
Measurement Parameters: male rats, suppositories rectally, 500 mg/kg, 1 month; control 10.5 ± 0.2

Inquiry: Answer with reported Hemoglobin of O=c1[nH]n([C@@H]2O[C@H](CO)[C@@H](O)[C@H]2O)c(=O)c2nc(O)cnc12.[Na].[Na]
Reply text: 10.7 ± 0.2 mmol/L

Inquiry: Answer with reported Hemoglobin of O=c1[nH][nH]c(=O)c2c(Br)ncnc12.[K]
Reply text: 10.6 ± 0.1 mmol/L

Inquiry: Answer with reported Hemoglobin of Nc1cccc2c(=O)[nH][nH]c(=O)c12.[Na]
Reply text: 10.6 ± 0.2 mmol/L

Inquiry: Answer with reported Hemoglobin of O=C([O-])c1ncnc2c(=O)n([C@@H]3O[C@H](CO)[C@@H](O)[C@H]3O)[nH]c(=O)c12.[Na+]
Reply text: 10.6 ± 0.3 mmol/L

###

Please respond with reported half-wave potential more positive at reverse stroke compared to forward stroke for every item in the list.
Assay Summary: Electrochemical activity: polarographic reduction on mercury dripping electrode
Assay type: physicochemical
Measurement Parameters: polarograms of reverse stroke
# value in mV; strip the unit string

Inquiry: Answer with reported half-wave potential more positive at reverse stroke compared to forward stroke of O=c1[nH][nH]c(=O)c2nccnc12.[Li]
Reply text: 20.0

Inquiry: Answer with reported half-wave potential more positive at reverse stroke compared to forward stroke of O=C([O-])c1ccc2c(=O)[nH][nH]c(=O)c2c1.O=C([O-])c1ccc2c(=O)[nH][nH]c(=O)c2c1.[Na+].[Na+]
Reply text: 30.0

Inquiry: Answer with reported half-wave potential more positive at reverse stroke compared to forward stroke of O=c1[nH][nH]c(=O)c2nccnc12.[Na]
Reply text: 27.0

Inquiry: Answer with reported half-wave potential more positive at reverse stroke compared to forward stroke of COP(=O)(OC)C(C)(C)CC(C)=O [Dimesphosphon, reference compound]
Reply text: 50.0

###

Assay Summary: Chronic toxicity of suppositories: indexes of peripheral blood
Type: in vivo, rats
Measurement Parameters: male rats, suppositories rectally, 50 mg/kg, 2 months; control 316 ± 8
Measured Metric: Coagulation, time (s)
# value in s; strip the unit string

Inquiry: Answer with reported Coagulation, time of O=C([O-])c1ncnc2c(=O)n([C@@H]3O[C@H](CO)[C@@H](O)[C@H]3O)[nH]c(=O)c12.[Na+]
Reply text: 321

Inquiry: Answer with reported Coagulation, time of Nc1cccc2c(=O)[nH][nH]c(=O)c12.[Na]
Reply text: 321

Inquiry: Answer with reported Coagulation, time of O=c1[nH][nH]c(=O)c2c(Br)ncnc12.[K]
Reply text: 319

Inquiry: Answer with reported Coagulation, time of O=c1[nH]n([C@@H]2O[C@H](CO)[C@@H](O)[C@H]2O)c(=O)c2nc(O)cnc12.[Na].[Na]
Reply text: 313

###

Assay Summary: Chronic toxicity of suppositories: indexes of peripheral blood
Assay type: in vivo, rats
Measurement Parameters: male rats, suppositories rectally, 50 mg/kg, 1 month; control 17.4 ± 1.3
Measured Metric: Leukocyte (thousand/mm^3)
# value in thousand/mm^3; strip the unit string

Inquiry: Answer with reported Leukocyte of Nc1cccc2c(=O)[nH][nH]c(=O)c12.[Na]
Reply text: 14.8

Inquiry: Answer with reported Leukocyte of O=c1[nH][nH]c(=O)c2c(Br)ncnc12.[K]
Reply text: 14.9

Inquiry: Answer with reported Leukocyte of O=c1[nH]n([C@@H]2O[C@H](CO)[C@@H](O)[C@H]2O)c(=O)c2nc(O)cnc12.[Na].[Na]
Reply text: 15.5

Inquiry: Answer with reported Leukocyte of O=C([O-])c1ncnc2c(=O)n([C@@H]3O[C@H](CO)[C@@H](O)[C@H]3O)[nH]c(=O)c12.[Na+]
Reply text: 15.9

###

Assay Summary: Chronic toxicity of suppositories: indexes of peripheral blood
Type: in vivo, rats
Measurement Parameters: male rats, suppositories rectally, 500 mg/kg, 1 month; control 4.0 + 0.3
Please respond with reported Eosinophiles for every item in the list.
# value in %; strip the unit string

Inquiry: Answer with reported Eosinophiles of O=c1[nH]n([C@@H]2O[C@H](CO)[C@@H](O)[C@H]2O)c(=O)c2nc(O)cnc12.[Na].[Na]
Reply text: 3.3

Inquiry: Answer with reported Eosinophiles of O=C([O-])c1ncnc2c(=O)n([C@@H]3O[C@H](CO)[C@@H](O)[C@H]3O)[nH]c(=O)c12.[Na+]
Reply text: 3.0

Inquiry: Answer with reported Eosinophiles of O=c1[nH][nH]c(=O)c2c(Br)ncnc12.[K]
Reply text: 3.5

Inquiry: Answer with reported Eosinophiles of Nc1cccc2c(=O)[nH][nH]c(=O)c12.[Na]
Reply text: 3.0

###

Assay Summary: Chronic toxicity of suppositories: indexes of peripheral blood
Assay type: in vivo, rats
Measurement Parameters: male rats, suppositories rectally, 500 mg/kg, 2 months; control 74.6 + 1.9
Please respond with reported Average volume of erythrocytes for every item in the list.
# value in Mkm^3; strip the unit string

Inquiry: Answer with reported Average volume of erythrocytes of O=C([O-])c1ncnc2c(=O)n([C@@H]3O[C@H](CO)[C@@H](O)[C@H]3O)[nH]c(=O)c12.[Na+] [Compound 34]
Reply text: 83.8

Inquiry: Answer with reported Average volume of erythrocytes of O=c1[nH][nH]c(=O)c2c(Br)ncnc12.[K] [Compound 37]
Reply text: 80.1

Inquiry: Answer with reported Average volume of erythrocytes of O=c1[nH]n([C@@H]2O[C@H](CO)[C@@H](O)[C@H]2O)c(=O)c2nc(O)cnc12.[Na].[Na] [Compound 23]
Reply text: 82.1

Inquiry: Answer with reported Average volume of erythrocytes of Nc1cccc2c(=O)[nH][nH]c(=O)c12.[Na] [Compound 15]
Reply text: 80.21
